measurement.target: Mouse TLR7 (Mus musculus, UniProt P58681)
Construct: endogenous in cells; host or cells: female BALB/c mice, in vivo
Sequence (P58681 27-1050): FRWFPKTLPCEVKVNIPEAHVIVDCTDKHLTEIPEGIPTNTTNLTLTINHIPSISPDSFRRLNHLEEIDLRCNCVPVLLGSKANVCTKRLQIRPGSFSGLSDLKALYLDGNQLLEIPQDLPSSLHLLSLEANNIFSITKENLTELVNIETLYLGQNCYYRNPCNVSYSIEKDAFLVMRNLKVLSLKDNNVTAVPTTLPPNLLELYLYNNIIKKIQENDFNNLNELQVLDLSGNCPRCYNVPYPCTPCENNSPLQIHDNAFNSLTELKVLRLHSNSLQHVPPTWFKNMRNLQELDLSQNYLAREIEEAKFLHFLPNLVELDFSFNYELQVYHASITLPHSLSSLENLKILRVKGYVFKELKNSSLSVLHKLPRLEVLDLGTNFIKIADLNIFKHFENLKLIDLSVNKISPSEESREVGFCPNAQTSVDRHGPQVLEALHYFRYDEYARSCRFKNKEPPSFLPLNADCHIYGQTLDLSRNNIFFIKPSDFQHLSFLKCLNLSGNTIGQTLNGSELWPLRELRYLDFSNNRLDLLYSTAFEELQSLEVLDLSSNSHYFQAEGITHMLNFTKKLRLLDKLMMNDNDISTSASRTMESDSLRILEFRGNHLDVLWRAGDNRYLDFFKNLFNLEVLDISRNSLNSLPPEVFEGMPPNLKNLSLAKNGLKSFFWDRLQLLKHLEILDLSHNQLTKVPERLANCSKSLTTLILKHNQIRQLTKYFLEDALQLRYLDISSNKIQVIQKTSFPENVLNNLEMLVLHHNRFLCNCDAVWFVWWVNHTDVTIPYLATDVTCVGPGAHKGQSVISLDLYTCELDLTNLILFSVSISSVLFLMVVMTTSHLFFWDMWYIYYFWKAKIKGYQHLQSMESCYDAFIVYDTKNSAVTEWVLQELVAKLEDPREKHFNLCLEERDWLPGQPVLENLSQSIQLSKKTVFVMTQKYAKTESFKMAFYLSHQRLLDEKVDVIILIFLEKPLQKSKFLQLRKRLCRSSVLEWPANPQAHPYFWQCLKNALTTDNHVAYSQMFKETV
assay.text: Short-term in vivo (STIV) assay: plasma IL-6 after s.c. R848
recorded.conditions: time point 6 hr; dose 33 mg/kg oral
property.measured: % Suppression vs. Vehicle (%)

Please review the entries below; each comes with its answer.
1) COc1ccc([C@@H]2C[C@H](C(F)(F)F)n3nc(-c4ccc(C(=O)N5CCNCC5)cc4)cc3N2)cc1OC
83
2) COc1ccc([C@@H]2C[C@H](C(F)(F)F)n3nc(C4CCNCC4)cc3N2)cc1OC
42
3) COc1ccc([C@H]2C[C@@H](C(F)F)n3nc(-c4ccc(C(=O)N5CCNCC5)cc4)cc3N2)cc1OC
92

(1) Cc1nn(C)cc1[C@@H]1C[C@H](C(F)(F)F)n2nc(-c3ccc(NC(N)=O)cc3)cc2N1
(2) COc1ccc([C@@H]2C[C@H](C(F)F)n3nc(-c4ccc(C(=O)N5CCNCC5)cc4)cc3N2)cc1OC
Recorded % Suppression vs. Vehicle values differ for 1 and 2 ; which one is higher? Response format: the label of the selected entry. 2
(2: 93%, 1: 0%)
